- System: OVCAR-3 ovarian
- Assay summary: NCI-60 one-dose screen, 48 h (100 = growth as untreated, 0 = no growth, -100 = all killed)
- Setup conditions: 10 µM unless noted
The panel holds about 83,000 compounds, 20% with a hit somewhere; the sample as a whole holds those more often.
Assign class by growth: not lower than 70% means yes; lower than 70% means no.

Solved cases below.
| Compound | Group label |
| --- | --- |
| COc1cc(NCCN(CC(C)C)C2CCCC2)c2ncccc2c1 | yes |
| CCCCCCOc1ccc(C(=N)N(CCCC)CCCC)c2ccccc12 | no |
| COc1ccc(NC(=O)c2sc3nc(C)c(C(O)c4ccc(OC)cc4)cc3c2N)cc1 (stereo not given) | no |
| COc1ccc(C(=O)/C=C/c2cn(Cc3ccc(Cl)cc3)c3ccccc23)cc1 | no |
| COc1cc(CNC(=O)CCCCC[P+](c2ccccc2)(c2ccccc2)c2ccccc2)c(OC)c2c1OCO2 | no |

# input Textbook exercise: given the entry "CN(C)c1ccc(-c2c(C#N)c(N)n3nc(N)c(C#N)c3c2C#N)cc1" , state whether its growth is greater than or equal to 70%.
# output yes

# input Another compound to check: "c1cnc2nc3c(cc2c1)oc1ccccc13"
# output yes
